# target.or.system: SARS-CoV-2 Mac1 (Severe acute respiratory syndrome coronavirus 2, UniProt P0DTD1)
# run.description: biochemical
# condition.set: read-out: %inhibition
Counter-ions that a name gives are not always drawn.
# reported inhibition at 100 µM; entries follow

- compound: "CC(C(=O)O)c1ccc2c(c1)[nH]c1ccc(Cl)cc12 (centres unmarked) [Carprofen]"
  inhibition at 100 µM, %: 0
- compound: "O=C(O)C1=C(CSc2nnnn2CS(=O)(=O)O)CS[C@@H]2[C@H](NC(=O)[C@H](O)c3ccccc3)C(=O)N12 [Cefonicid sodium]"
  inhibition at 100 µM, %: 0
- compound: "Nc1nc(NC2CC2)c2ncn([C@H]3C=C[C@@H](CO)C3)c2n1 [Abacavir sulfate]"
  inhibition at 100 µM, %: 0
- compound: "O=C1NS(=O)(=O)c2ccccc21 [Saccharin]"
  inhibition at 100 µM, %: 0
- compound: "O=C(C[S+]([O-])Cc1ccco1)NC/C=C\\COc1cc(CN2CCCCC2)ccn1 (centres unmarked) [Lafutidine]"
  inhibition at 100 µM, %: 0
- compound: "CC[C@H](C)C(=O)O[C@H]1CCC=C2C=C[C@H](C)[C@H](CC[C@@H]3C[C@@H](O)CC(=O)O3)[C@H]21 [Mevastatin]"
  inhibition at 100 µM, %: 12.1
- compound: "COc1ccc(C(=O)c2ccccc2O)c(O)c1 [2,2′-Dihydroxy-4-methoxybenzophenone]"
  inhibition at 100 µM, %: 8.7
- compound: "COc1cc(NS(=O)(=O)c2ccc(N)cc2)nc(OC)n1 [Sulphadimethoxine]"
  inhibition at 100 µM, %: 0

###

# target.or.system: UniProtKB P0DTD1
# run.description: biochemical
# condition.set: read-out: %inhibition
Structures can show the parent of a compound that is named as a salt.
inhibition at 100 µM vs 10%: at or above is rule met, below is rule not met.

- compound: "CC1=C(C(=O)OC(C)C)C(c2cccc([N+](=O)[O-])c2)C(C(=O)OC2CN(C(c3ccccc3)c3ccccc3)C2)=C(N)N1 (stereo not drawn)"
  group: "rule met"
- compound: "Nc1ccc(S(=O)(=O)Nc2ccccn2)cc1"
  group: "rule met"
- compound: "CC[C@H](C)C(=O)O[C@H]1C[C@@H](C)C=C2C=C[C@H](C)[C@H](CC[C@@H]3C[C@@H](O)CC(=O)O3)[C@H]21"
  group: "rule not met"
- compound: "Nc1ncnc2c1ncn2[C@@H]1O[C@H](CO)[C@@H](O)[C@H]1O"
  group: "rule not met"
- compound: "CN1CCN(c2c(F)cc3c(=O)c(C(=O)O)cn4c3c2OCN4C)CC1"
  group: "rule met"
- compound: "CC[C@H]1CN2CC[C@H]1C[C@@H]2[C@@H](O)c1ccnc2ccc(OC)cc12 [Hydroquinidine]"
  group: "rule not met"
- compound: "O=C(O)CCCC[C@@H]1CCSS1 (racemic)"
  group: "rule met"
- compound: "C[N+]1(C)[C@@H]2C[C@@H](OC(=O)[C@H](CO)c3ccccc3)C[C@H]1[C@@H]1O[C@@H]12"
  group: "rule not met"
- compound: "N=C(N)N [Guanidine HCl]"
  group: "rule met"

###

# target.or.system: SARS-CoV-2 Mac1 (Severe acute respiratory syndrome coronavirus 2, UniProt P0DTD1)
# run.description: biochemical
# condition.set: read-out: %inhibition
Where a name gives a salt, the structure may show the parent alone.
measured.attribute: inhibition at 100 µM (%)

- molecule: "CN(C)C(=O)Oc1cccc([N+](C)(C)C)c1 [Neostigmine Bromide]"
  uom: "%"
  readout.value: 0
- molecule: "O=C(O)c1ccccc1Nc1cccc(C(F)(F)F)c1"
  uom: "%"
  readout.value: 3.41
- molecule: "C[N+](C)(C)CCOP(=O)(O)OP(=O)([O-])OC[C@H]1O[C@@H](n2ccc(N)nc2=O)[C@H](O)[C@@H]1O [Citicoline sodium]"
  uom: "%"
  readout.value: 1.89
- molecule: "Cc1ccc(F)c(NC(=O)Nc2ccc(-c3cccc4[nH]nc(N)c34)cc2)c1"
  uom: "%"
  readout.value: 52.3
- molecule: "CC(C)NCC(O)c1cc(O)cc(O)c1 (stereo not drawn) [Metaproterenol Sulfate]"
  uom: "%"
  readout.value: 2.56
- molecule: "CC(C)C(=O)c1c(C(C)C)nn2ccccc12"
  uom: "%"
  readout.value: 0
- molecule: "Clc1ccccc1CN1CCc2sccc2C1 [Ticlopidine HCl]"
  uom: "%"
  readout.value: 0.00536
- molecule: "C=CCNC(N)=S"
  uom: "%"
  readout.value: 7.98
- molecule: "CC(C)C[C@H](NC(=O)CNC(=O)c1cc(Cl)ccc1Cl)B1OC(=O)CC(CC(=O)O)(C(=O)O)O1 (stereo partly drawn) [Ixazomib Citrate (MLN9708)]"
  uom: "%"
  readout.value: 0
